B1: Poly(rC)-binding protein 1, residues 278 to 350; numbered along this chain, Q15365 (parent)
chain: TQTTHELTIPNNLIGCIIGRQGANINEIRQMSGAQIKIANPVEGSSGRQVTITGSAASISLAQYLINARLSSE

variants of: B1; test: abundance fitness (aPCA) (normalised: wild type 0, dead -1); higher = more abundant; growth selection in yeast, the domain comes from the species named; conditions: Homo sapiens

- CHANGES: "I66G"
  abundance fitness: -0.594
- CHANGES: "I14K"
  abundance fitness: -0.855
- CHANGES: "A56K"
  abundance fitness: 0.029
- CHANGES: "H5K"
  abundance fitness: 0.107
- CHANGES: "I14R"
  abundance fitness: -0.573
- CHANGES: "G44R"
  abundance fitness: -0.212
- CHANGES: "S55E"
  abundance fitness: -0.086
- CHANGES: "Q49R"
  abundance fitness: 0.049
- CHANGES: "N67S"
  abundance fitness: -0.019
- CHANGES: "T3P"
  abundance fitness: -0.16
- CHANGES: "A39Q"
  abundance fitness: -0.075
- CHANGES: "R69W"
  abundance fitness: -0.596
- CHANGES: "A34E"
  abundance fitness: -1.24
- CHANGES: "G44E"
  abundance fitness: -0.278
- CHANGES: "Y64M"
  abundance fitness: -0.098
- CHANGES: "N24F"
  abundance fitness: -0.13
- CHANGES: "S72Q"
  abundance fitness: -0.401
- CHANGES: "H5C"
  abundance fitness: 0.104
- CHANGES: "A62N"
  abundance fitness: -0.828
- CHANGES: "S46E"
  abundance fitness: -0.088
- CHANGES: "T1V"
  abundance fitness: 0.061
- CHANGES: "K37H"
  abundance fitness: -0.272
- CHANGES: "G54S"
  abundance fitness: -0.881
- CHANGES: "Q21P"
  abundance fitness: -0.568
- CHANGES: "I38T"
  abundance fitness: -0.403
- CHANGES: "H5S"
  abundance fitness: 0.091
- CHANGES: "L13N"
  abundance fitness: -0.228
- CHANGES: "I17W"
  abundance fitness: -0.663
- CHANGES: "T51V"
  abundance fitness: -0.027
- CHANGES: "I17F"
  abundance fitness: -0.177
- CHANGES: "Q21T"
  abundance fitness: -0.207
- CHANGES: "T3M"
  abundance fitness: 0.161
- CHANGES: "G22L"
  abundance fitness: -0.408
- CHANGES: "R29P"
  abundance fitness: -0.817
- CHANGES: "N11D"
  abundance fitness: 0.186
- CHANGES: "I18K"
  abundance fitness: -0.435
- CHANGES: "I28E"
  abundance fitness: -0.895
- CHANGES: "A56L"
  abundance fitness: 0.026
- CHANGES: "Q21D"
  abundance fitness: -0.134
- CHANGES: "A68G"
  abundance fitness: -0.122
- CHANGES: "I25C"
  abundance fitness: -1.01
- CHANGES: "T4D"
  abundance fitness: -0.284
- CHANGES: "L13W"
  abundance fitness: -0.265
- CHANGES: "E27P"
  abundance fitness: -0.704
- CHANGES: "Q63I"
  abundance fitness: 0.064
- CHANGES: "S55A"
  abundance fitness: -0.239
